This listing pairs compounds with measured pIC50.
Assay: Antiinflammatory activity in LPS-induced […] BV2 cells assessed as reduction in NO production pretreated for 30 mins followed by LPS stimulation measured for 24 hrs by Greiss assay
Format: functional, cell-based
Conditions: BV-2
pIC50: −log10 of the molar value.
recordedEndpoint: pIC50

[[record]]
smilestext = "C[C@H]1C[C@@H](O)C[C@H](C[C@H]2Cc3cc(O)cc(O)c3C(=O)O2)O1"
numericreadout = 4.19

[[record]]
smilestext = "C[C@H]1CCC[C@H](C[C@H]2Cc3cc(O)cc(O[C@H]4O[C@H](CO)[C@@H](O)[C@H]4O)c3C(=O)O2)O1"
numericreadout = 4.48

[[record]]
smilestext = "C[C@H]1CCC[C@H](C[C@H]2Cc3cc(O)cc(O)c3C(=O)O2)O1"
numericreadout = 4.62

[[record]]
smilestext = "COc1cc(O)c2c(c1)C[C@H](C[C@H]1CCC[C@H](C)O1)OC2=O"
numericreadout = 4.68

[[record]]
smilestext = "C[C@@H]1O[C@@H](C[C@H]2Cc3cc(O)cc(O)c3C(=O)O2)CC[C@@H]1O"
numericreadout = 4.70

[[record]]
smilestext = "COc1cc(O)cc2c1C(=O)O[C@@H](C[C@H]1CCC[C@H](C)O1)C2"
numericreadout = 4.55


* * *

Experiment: Antiinflammatory activity in LPS-induced […] BV2 cells assessed as reduction in PGE2 production pretreated for 30 mins followed by LPS stimulation measured for 24 hrs by ELISA
Assay type: functional, cell-based
Conditions: BV-2
pIC50: −log10 of the molar value.
recordedEndpoint: pIC50

[[record]]
compound = "C[C@@H]1O[C@@H](C[C@H]2Cc3cc(O)cc(O)c3C(=O)O2)CC[C@@H]1O"
numericreadout = 4.64

[[record]]
compound = "COc1cc(O)cc2c1C(=O)O[C@@H](C[C@H]1CCC[C@H](C)O1)C2"
numericreadout = 4.52

[[record]]
compound = "C[C@H]1C[C@@H](O)C[C@H](C[C@H]2Cc3cc(O)cc(O)c3C(=O)O2)O1"
numericreadout = 4.21

[[record]]
compound = "COc1cc(O)c2c(c1)C[C@H](C[C@H]1CCC[C@H](C)O1)OC2=O"
numericreadout = 4.68

[[record]]
compound = "C[C@H]1CCC[C@H](C[C@H]2Cc3cc(O)cc(O)c3C(=O)O2)O1 [CLADOSPORIN]"
numericreadout = 4.57

[[record]]
compound = "C[C@H]1CCC[C@H](C[C@H]2Cc3cc(O)cc(O[C@H]4O[C@H](CO)[C@@H](O)[C@H]4O)c3C(=O)O2)O1"
numericreadout = 4.47

